- assay_notes: Aqueous solubility of the compound in pH 7.4 phosphate-buffered saline at 200 uM after 24 hrs by shake-flask method
- Format: physicochemical
measurement_name: solubility thermodynamic at 24 h, 200 µM (µM)

>>> print(df.to_string())
                                   molecule                          measurement_name  result_value
0  CCC#CC[C@H](C)[C@H](O)/C=C/[C@H]1CC(F)(F)C(=O)N1CCCCCCC(=O)O  solubility thermodynamic at 24 h, 200 µM           197
1  CCC#CC[C@H](C)[C@H](O)/C=C/[C@H]1CCC(=O)N1CCCCCCC(=O)O  solubility thermodynamic at 24 h, 200 µM           192
